So I've got a bunch of compounds here, and I need their pIC50 values.
Target: MMP-2 (Homo sapiens, UniProt P08253)
Construct: made in house; provided by Dr. Gregory Goldberg, Washington University
Sequence (P08253 110-660): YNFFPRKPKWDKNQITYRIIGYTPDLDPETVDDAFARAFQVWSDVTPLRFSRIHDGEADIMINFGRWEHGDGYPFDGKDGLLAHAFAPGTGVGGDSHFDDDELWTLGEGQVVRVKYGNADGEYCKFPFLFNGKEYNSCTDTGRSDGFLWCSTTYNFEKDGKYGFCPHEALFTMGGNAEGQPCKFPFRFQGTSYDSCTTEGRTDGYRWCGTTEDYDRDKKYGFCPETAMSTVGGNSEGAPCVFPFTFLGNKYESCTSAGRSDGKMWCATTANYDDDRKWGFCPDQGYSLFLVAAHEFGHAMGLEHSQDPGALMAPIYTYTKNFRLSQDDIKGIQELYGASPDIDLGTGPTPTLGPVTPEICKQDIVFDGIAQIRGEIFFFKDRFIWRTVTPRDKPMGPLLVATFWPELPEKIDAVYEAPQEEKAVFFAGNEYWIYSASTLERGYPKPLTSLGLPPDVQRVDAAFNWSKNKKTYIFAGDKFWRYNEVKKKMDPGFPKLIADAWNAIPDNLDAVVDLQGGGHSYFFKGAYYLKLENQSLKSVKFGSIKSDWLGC
Assay: biochemical
Conditions: recombinant human MMP-2, MCA peptide substrate 4 μM, pH 7.5, room temperature; read-out: MMP-2 IC50
Numbers only, as −log10 of the molar value.

[
  {
    "smilesInput": "CCCCc1ccc(OC2CCN(c3ccc(S(=O)(=O)C4(C(=O)NO)CCOCC4)cc3)CC2)cc1",
    "recordedValue": 8.96
  },
  {
    "smilesInput": "C=CCCC(=O)C1CCN(c2ccc(S(=O)(=O)C3(C(=O)NO)CCOCC3)cc2)CC1",
    "recordedValue": 7.46
  }
]

Dear colleague, could you send me pIC50 for each of the items below? Thanks.
1. COc1ccc(C(=O)C2CCN(c3ccc(S(=O)(=O)C4(C(=O)NO)CCN(c5ccncc5)CC4)cc3)CC2)cc1
2. O=C(NO)C1(S(=O)(=O)c2ccc(N3CCC(Oc4cccc5ccccc45)CC3)cc2)CCOCC1
3. O=C(NO)C1(S(=O)(=O)c2ccc(N3CCC(OCc4ccc(COCC(F)(F)C(F)(F)C(F)(F)F)cc4)CC3)cc2)CCOCC1
4. O=C(NO)C1(S(=O)(=O)c2ccc(N3CCC(Oc4ccccc4[N+](=O)[O-])CC3)cc2)CCOCC1

### Response
1. 6.80
2. 7.60
3. 5.55
4. 6.85

---

Biological target: MMP-13 (Homo sapiens, UniProt P45452)
Construct: made in house; host or cells: baculovirus / insect cells
Experiment: biochemical
Details: MMP-13 IC50 (nM)
Description: The compounds prepared in the manner described in the Examples above were assayed for activity by an in vitro assay. […] Briefly, 4-aminophenylmercuric acetate (APMA) or trypsin-activated MMPs were incubated with various concentrations of the inhibitor compound at room temperature for 5 minutes. […] Inhibition was measured as a reduction in fluorescent intensity as a function of inhibitor concentration, using a Perkin Elmer L550 plate reader. The IC50 values were calculated from those values. […]
assayEndpoint: IC50
Be sure to follow the number with its unit.

[
  {
    "smilesInput": "Cc1ccc(N2CCN(c3ccc(S(=O)(=O)C4(C(=O)NO)CCOCC4)cc3)CC2)cc1",
    "recordedValue": "1.9 nM"
  }
]

### Prompt Dear colleague, I am looking for the recorded IC50 of the following compound: COc1ccc(C2CCN(c3ccc(S(=O)(=O)C4(C(=O)NO)CCOCC4)cc3)CC2)c(C)c1
### Response 7 nM

---

molecular target: MMP-13 (Homo sapiens); construct: made in house; host or cells: baculovirus / insect cells; experiment: biochemical; conditions: recombinant human MMP-13, MCA peptide substrate 4 μM, pH 7.5, room temperature; read-out: MMP-13 IC50
Where a name gives a salt, the structure may show the parent alone.
So I've got a bunch of compounds here, and I need their IC50 values.
Be sure to follow the number with its unit.

[
  {
    "compound": "O=C(CNCc1cccnc1)N1CCC(C(=O)NO)(S(=O)(=O)c2ccc(Oc3ccc(C(F)(F)F)cc3)cc2)CC1",
    "IC50": "0.4 nM"
  },
  {
    "compound": "O=C(Nc1ccc(F)cc1)C1CCN(c2ccc(S(=O)(=O)C3(C(=O)NO)CCOCC3)cc2)CC1",
    "IC50": "11.5 nM"
  },
  {
    "compound": "O=C(NO)C1(S(=O)(=O)c2ccc(Oc3ccc(OC(F)(F)F)cc3)cc2)CCN(c2cccnc2)CC1",
    "IC50": "0.2 nM"
  },
  {
    "compound": "COc1cccc(CO[C@@H]2CCN(c3ccc(S(=O)(=O)C4(C(=O)NO)CCN(C5CC5)CC4)cc3)C2)c1",
    "IC50": "7 nM"
  },
  {
    "compound": "O=C(NO)C1(S(=O)(=O)c2ccc(N3CCC([S+]([O-])c4ccccc4)CC3)cc2)CCN(C2CC2)CC1 (stereo not drawn)",
    "IC50": "136 nM"
  }
]

Dear colleague, could you send me IC50 for each of the items below? Thanks.
1. COCCN(CCCCC(=O)N1CCC(C(=O)NO)(S(=O)(=O)c2ccc(Oc3ccc(C(F)(F)F)cc3)cc2)CC1)CCOC
2. O=C(Nc1ccncn1)C1CCN(c2ccc(S(=O)(=O)C3(C(=O)NO)CCOCC3)cc2)CC1
3. O=C(NC1CCN(c2ccc(S(=O)(=O)C3(C(=O)NO)CCOCC3)cc2)CC1)c1ccc(OC(F)(F)F)cc1
4. COCCN1CCC(C(=O)NO)(S(=O)(=O)c2ccc(N3CCC(C(=O)N(C)CCc4ccccn4)CC3)cc2)CC1 [Example 235, Dihydrochloride]
5. O=C(NO)C1(S(=O)(=O)c2ccc(N3CCC(OCc4ccc(Cl)cc4)CC3)cc2)CCOCC1
6. Cc1ccccc1N1CCN(c2ccc(S(=O)(=O)C3(C(=O)NO)CCOCC3)cc2)CC1
7. O=C(NO)C1(S(=O)(=O)c2ccc(N3CCC(OCc4ccc(F)c(F)c4)CC3)cc2)CCOCC1

### Response
1. 4 nM
2. 9 nM
3. 14.8 nM
4. 235 nM
5. 2.4 nM
6. 7.7 nM
7. 20.6 nM

Dear colleague, could you send me IC50 for each of the items below? Thanks.
1. Cn1cnc(S(=O)(=O)N2CCN(c3ccc(S(=O)(=O)C4(C(=O)NO)CCOCC4)cc3)CC2)c1
2. N#Cc1ccccc1-c1ccc(COC2CCN(c3ccc(S(=O)(=O)C4(C(=O)NO)CCOCC4)cc3)CC2)cc1
3. CC1CN(c2ccc(S(=O)(=O)C3(C(=O)NO)CCOCC3)cc2)CCC1OCc1ccccc1 (stereo not drawn)

### Response
60 nM
16.9 nM
27 nM

---

So I've got a bunch of compounds here, and I need their IC50 values.
target: MMP-13 (Homo sapiens, UniProt P45452); construct: made in house; host or cells: baculovirus / insect cells; test: biochemical; settings: recombinant human MMP-13, MCA peptide substrate 4 μM, pH 7.5, room temperature; read-out: MMP-13 IC50
One number for each entry, in nM.

Example cases with answers are listed next.
[
  {
    "compound": "O=C(NO)C1(S(=O)(=O)c2ccc(N3CCC(OCc4cccc(Cl)c4)CC3)cc2)CCOCC1 [Example 573]",
    "testTarget": "MMP-13 (Homo sapiens, UniProt P45452)",
    "assayEndpoint": "IC50",
    "recordedValue": 11.4
  },
  {
    "compound": "O=C(NO)C1(S(=O)(=O)c2ccc(N3CCC(Oc4ccccc4O)CC3)cc2)CCOCC1 [Example 835]",
    "testTarget": "MMP-13 (Homo sapiens, UniProt P45452)",
    "assayEndpoint": "IC50",
    "recordedValue": 6
  },
  {
    "compound": "CC1CC(C)CN(C(=O)C2CCN(c3ccc(S(=O)(=O)C4(C(=O)NO)CCOCC4)cc3)CC2)C1 (stereo not shown) [Example 55]",
    "testTarget": "MMP-13 (Homo sapiens, UniProt P45452)",
    "assayEndpoint": "IC50",
    "recordedValue": 10
  }
]

Next:
### Prompt Dear colleague, I am looking for the recorded IC50 of the following compound: CC1CC(C)CN(C(=O)C2CCN(c3ccc(S(=O)(=O)C4(C(=O)NO)CCN(C(=O)CN5CCOCC5)CC4)cc3)CC2)C1 (stereo not shown) [Example 283]
### Response 13.8

---

target: MMP-2 (Homo sapiens); construct: made in house; provided by Dr. Gregory Goldberg, Washington University; test: biochemical; settings: recombinant human MMP-2, MCA peptide substrate 4 μM, pH 7.5, room temperature; read-out: MMP-2 IC50
So I've got a bunch of molecules here, and I need their pIC50 values.
One number for each entry, as −log10 of the molar value.

Example cases with answers are listed next.
[
  {
    "molecule": "O=C(NO)C1(S(=O)(=O)c2ccc(N3CCC(Oc4ccccc4F)CC3)cc2)CCOCC1 [Example 547]",
    "assayEndpoint": "pIC50",
    "recordedValue": 7.19
  },
  {
    "molecule": "O=C(NO)C1(S(=O)(=O)c2ccc(Oc3ccncc3)cc2)CCS(=O)(=O)CC1 [Example 160]",
    "assayEndpoint": "pIC50",
    "recordedValue": 7.05
  },
  {
    "molecule": "Cc1ccc(C(=O)C2CCN(c3ccc(S(=O)(=O)C4(C(=O)NO)CCOCC4)cc3)CC2)cc1 [Example 652]",
    "assayEndpoint": "pIC50",
    "recordedValue": 7.09
  }
]

Dear colleague, could you send me pIC50 for each of the items below? Thanks.
1. CCCC(=O)N1CCN(c2ccc(S(=O)(=O)C3(C(=O)NO)CCOCC3)cc2)CC1 [Example 590]
2. O=C(c1ccccc1)C1CCN(c2ccc(S(=O)(=O)C3(C(=O)NO)CCOCC3)cc2)CC1 [Example 656]

### Response
7.10
6.92
